procedure.summary: Stability of the compound in rat plasma assessed as drug remaining at 1 uM incubated for 8 hr by LC-MS/MS method
Format: ADME, cell-free
assay.setup: read-out: Stability
Hi there, I'd appreciate the recorded remaining at 8 h, 1 µM for every entry that follows.

Request: Annotate the compound `Cc1cc(-c2ccc(CCC(=O)Nc3ccc(-c4cnccn4)cn3)cc2)ccn1` with its measured remaining at 8 h, 1 µM.
Response: 90%

Request: Annotate the compound `Cc1cc(-c2ccc(NCC(=O)Nc3ccc(-c4cnccn4)cn3)cc2)ccn1` with its measured remaining at 8 h, 1 µM.
Response: 98%

Request: Annotate the compound `Cc1cc(-c2ccc(SCC(=O)Nc3ccc(-c4cnccn4)cn3)cc2)ccn1` with its measured remaining at 8 h, 1 µM.
Response: 83%

Request: Annotate the compound `Cc1cc(-c2ccc(OCC(=O)Nc3ccc(-c4cnccn4)cn3)cc2)ccn1` with its measured remaining at 8 h, 1 µM.
Response: 84%

Request: Annotate the compound Cc1cc(-c2ccc(OC(C)C(=O)Nc3ccc(-c4cnccn4)cn3)cc2)ccn1 (stereo not given) with its measured remaining at 8 h, 1 µM.
Response: 100%

* * *

procedure.summary: Intrinsic clearance in mouse liver microsomes at 1 uM incubated for 60 mins in presence of NADPH by LC-MS/MS method
Assay type: ADME
assay.setup: read-out: CLH
Hi there, I'd appreciate the recorded CLint scaled at 1 µM for every entry that follows.
Supply the numeric figure in mL/min/kg, leaving out any unit text.

Request: Annotate the molecule Cc1cc(-c2ccc(OC(C)C(=O)Nc3ccc(-c4cnccn4)cn3)cc2)ccn1 (stereo not given) with its measured CLint scaled at 1 µM.
Response: 321

Request: Annotate the molecule `Cc1cc(-c2ccc(SCC(=O)Nc3ccc(-c4cnccn4)cn3)cc2)ccn1` with its measured CLint scaled at 1 µM.
Response: 1790

Request: Annotate the molecule `Cc1cc(-c2ccc(CCC(=O)Nc3ccc(-c4cnccn4)cn3)cc2)ccn1` with its measured CLint scaled at 1 µM.
Response: 1260

Request: Annotate the molecule `Cc1cc(-c2ccc(NCC(=O)Nc3ccc(-c4cnccn4)cn3)cc2)ccn1` with its measured CLint scaled at 1 µM.
Response: 440

Request: Annotate the molecule `Cc1cc(-c2ccc(OCC(=O)Nc3ccc(-c4cnccn4)cn3)cc2)ccn1` with its measured CLint scaled at 1 µM.
Response: 1430

* * *

Hi there, I'd appreciate the recorded log10(IC50) for every entry that follows.
system.name: Protein-serine O-palmitoleoyltransferase porcupine (Homo sapiens, UniProt Q9H237)
Sequence (Q9H237 whole entry): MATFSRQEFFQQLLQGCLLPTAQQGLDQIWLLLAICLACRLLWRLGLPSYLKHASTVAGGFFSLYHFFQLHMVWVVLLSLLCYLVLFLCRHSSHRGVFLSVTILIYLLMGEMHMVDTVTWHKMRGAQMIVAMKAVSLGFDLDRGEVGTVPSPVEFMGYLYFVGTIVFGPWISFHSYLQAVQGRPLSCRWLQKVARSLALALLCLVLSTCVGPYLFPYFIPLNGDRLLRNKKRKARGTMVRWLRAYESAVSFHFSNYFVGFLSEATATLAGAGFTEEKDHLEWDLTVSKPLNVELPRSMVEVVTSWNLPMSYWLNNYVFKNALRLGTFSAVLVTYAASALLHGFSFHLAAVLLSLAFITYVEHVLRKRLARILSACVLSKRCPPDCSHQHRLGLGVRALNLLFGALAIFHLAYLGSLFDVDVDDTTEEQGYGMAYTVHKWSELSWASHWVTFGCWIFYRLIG
procedure.summary: Inhibition of porcupine (unknown origin) expressed in mouse L Wnt3A cells co-cultured with TM3 cells harboring luciferase reporter gene assessed as reduction in Wnt ligand-driven LEF/TCF-dependent transcriptional activity
Answers are given as log10 of IC50 in nM.

Request: Annotate the compound `Cc1cc(-c2ccc(SCC(=O)Nc3ccc(-c4cnccn4)cn3)cc2)ccn1` with its measured log10(IC50).
Response: -0.28

Request: Annotate the compound `Cc1cc(-c2ccc(CCC(=O)Nc3ccc(-c4cnccn4)cn3)cc2)ccn1` with its measured log10(IC50).
Response: -0.72

Request: Annotate the compound `N#Cc1ccc2cc(OCC(=O)Nc3ccc(-c4cnccn4)cn3)ccc2c1` with its measured log10(IC50).
Response: 0.43

Request: Annotate the compound `Cc1cc(-c2ccc(N(C)CC(=O)Nc3ccc(-c4cnccn4)cn3)cc2)ccn1` with its measured log10(IC50).
Response: -0.17

Request: Annotate the compound `Cc1cc(-c2ccc(OC(=O)Nc3ccc(-c4ccccc4)cc3)cc2)ccn1` with its measured log10(IC50).
Response: 0.70

Request: Annotate the compound `Cc1cc(-c2cccc(OCC(=O)Nc3ccc(-c4cnccn4)cn3)c2)ccn1` with its measured log10(IC50).
Response: 2.27

Request: Annotate the compound `CC(=O)N1CCc2ccc(OCC(=O)Nc3ccc(-c4cnccn4)cn3)cc2C1` with its measured log10(IC50).
Response: 1.38

Request: Annotate the compound `N#Cc1ccc(OCC(=O)Nc2ccc(-c3cnccn3)cn2)cc1` with its measured log10(IC50).
Response: 2.69

Request: Annotate the compound `Cc1cc(-c2ccc(NCC(=O)Nc3ccc(-c4cnccn4)cn3)cc2)ccn1` with its measured log10(IC50).
Response: -0.02

Request: Annotate the compound `Cc1cc(-c2cccc(SCC(=O)Nc3ccc(-c4cnccn4)cn3)c2)ccn1` with its measured log10(IC50).
Response: 1.60

Request: Annotate the compound `Cc1cc(-c2ccc(OCC(=O)Nc3ccc(-c4cnccn4)cn3)cc2)ccn1` with its measured log10(IC50).
Response: -0.64

Ref: ChEMBL document CHEMBL3621074
